Origin of measurements: the antibiotic and cytotoxicity screens of Wong et al. (2023)

# System: HSkMC
# experiment: cytotoxicity call (relative viability < 0.9)
# condition_details: 10 µM
The campaign covered roughly 39,000 compounds. About 1,500 (3.8%) were called active. Only a selection was taken, and actives are over-represented in it overall.
Outcome codes: active, inactive

smiles_representation: C[C@H](CO)N1C[C@H](C)[C@@H](CN(C)Cc2ccc(C(F)(F)F)cc2)Oc2ccc(NC(=O)Cc3cn(C)c4ccccc34)cc2C1=O
class_label: inactive
--
smiles_representation: C[C@@H]1CN([C@H](C)CO)C(=O)c2cc(NC(=O)Cc3cn(C)c4ccccc34)ccc2O[C@H]1CN(C)Cc1ccc(C(F)(F)F)cc1
class_label: inactive
--
smiles_representation: C[C@@H]1O[C@H]2Oc3c(-c4ccc(O)cc4)oc4cc(O)c(c(O)c4c3=O)-c3cc(ccc3O)/C=C\C(=O)OC[C@H]3O[C@@H](O[C@H]([C@H]1O)[C@H]2O)[C@H](O)[C@@H](O)[C@@H]3O
class_label: inactive
--
smiles_representation: C[C@H](CO)N1C[C@H](C)[C@@H](CN(C)CC2CC2)OCCCC[C@H](C)Oc2ccc(NC(=O)Nc3ccc(C(F)(F)F)cc3)cc2C1=O
class_label: inactive
--
smiles_representation: C[C@@H]1CN([C@H](C)CO)C(=O)c2cc(NC(=O)Cc3cn(C)c4ccccc34)ccc2O[C@H]1CN(C)C(=O)Nc1ccc(C(F)(F)F)cc1
class_label: inactive
--
smiles_representation: C[C@@H]1CN([C@H](C)CO)C(=O)c2cc(NC(=O)Cc3cn(C)c4ccccc34)ccc2O[C@@H]1CN(C)Cc1ccc(C(F)(F)F)cc1
class_label: active

###

# Tested on: HSkMC
# experiment: cytotoxicity call (relative viability < 0.9)
# condition_details: 10 µM
Among all 39,000 compounds or so, about 1,500 (3.8%) were called active. This excerpt belongs to a sample that is enriched for actives.
Outcome codes: active, inactive

smiles_representation: C[C@@H]1CCCCO[C@H](CN(C)C(=O)C2CCCCC2)[C@@H](C)CN([C@H](C)CO)C(=O)c2cc(NS(=O)(=O)c3ccc(Cl)cc3)ccc2O1
class_label: inactive
//
smiles_representation: C[C@H]1CCCCO[C@H](CN(C)C(=O)Cc2ccccc2)[C@@H](C)CN([C@@H](C)CO)C(=O)c2cc(NS(=O)(=O)c3ccc(Cl)cc3)ccc2O1
class_label: active
//
smiles_representation: C[C@@H]1CCCCO[C@H](CN(C)C(=O)C2CCCCC2)[C@H](C)CN([C@H](C)CO)C(=O)c2cc(NS(=O)(=O)c3ccc(Cl)cc3)ccc2O1
class_label: inactive

###

# Tested on: HSkMC
# experiment: cytotoxicity call (relative viability < 0.9)
# condition_details: 10 µM
In all, about 39,000 compounds went through this assay and about 1,500 (3.8%) were called active. Shown is part of a subset that was picked to be rich in actives.
Outcome codes: Yes for active, No for inactive

smiles_representation: C[C@@H]1CN([C@H](C)CO)C(=O)c2cc(NC(=O)Nc3ccc(F)cc3)ccc2O[C@H]1CN(C)Cc1ccc(Oc2ccccc2)cc1
target_of_assay: HSkMC
class_label: No
--
smiles_representation: C[C@@H]1CN([C@@H](C)CO)C(=O)c2cc(NC(=O)Nc3ccccc3)ccc2O[C@@H]1CN(C)Cc1ccc(Cl)c(Cl)c1
target_of_assay: HSkMC
class_label: Yes
--
smiles_representation: C[C@H]1CN([C@@H](C)CO)C(=O)c2cc(NC(=O)Nc3ccc(F)cc3)ccc2O[C@@H]1CN(C)Cc1ccc(Oc2ccccc2)cc1
target_of_assay: HSkMC
class_label: No
--
smiles_representation: C[C@@H]1CN([C@H](C)CO)C(=O)c2cc(NC(=O)Nc3ccccc3)ccc2O[C@H]1CN(C)Cc1ccc(Cl)c(Cl)c1
target_of_assay: HSkMC
class_label: No
--
smiles_representation: C[C@@H]1CN([C@H](C)CO)C(=O)c2cc(NC(=O)Nc3ccc(F)cc3)ccc2O[C@@H]1CN(C)Cc1ccc(Oc2ccccc2)cc1
target_of_assay: HSkMC
class_label: Yes
--
smiles_representation: C[C@H](CO)N1C[C@H](C)[C@@H](CN(C)Cc2ccc(Oc3ccccc3)cc2)Oc2ccc(NC(=O)Nc3ccc(F)cc3)cc2C1=O
target_of_assay: HSkMC
class_label: No
--
smiles_representation: CN(Cc1ccccn1)C(=O)[C@@]12COC[C@@H]1CN(S(C)(=O)=O)C2
target_of_assay: HSkMC (human skeletal muscle cells)
class_label: No
